Entry source: PubChem BioAssay AID1963867

Tested on: KRAS-mutant PDC tumor spheroid with HUVEC/MSC, viability
Protocol Description: Anticancer human tumor 327498-153-R-J2-PDC patient-derived uterine carcinosarcoma cell line growth inhibition [KRAS2]
Run Conditions: second compound 0.1 µM; first compound 0.001 µM; stronger effect = lower value
Property: viability, T/C

Cn1ncnc1[C@H]1c2n[nH]c(=O)c3cc(F)cc(c23)N[C@@H]1c1ccc(F)cc1 + CNCc1ccccc1-c1csc(C(C)Nc2nc(C)nc3cc(OC)c(OC)cc23)c1 : 81.7%

Dear colleague, could you send me viability, T/C for each of the items below? Thanks.
1. CN(C)C/C=C/C(=O)Nc1cc2c(Nc3ccc(F)c(Cl)c3)ncnc2cc1O[C@H]1CCOC1 + C=CC(=O)N1CCN(c2nc(OCC3CCCN3C)nc3c2CCN(c2cccc4cccc(C)c24)C3)CC1CC#N
2. Cn1ncnc1[C@H]1c2n[nH]c(=O)c3cc(F)cc(c23)N[C@@H]1c1ccc(F)cc1 + CC1OCC2(CCN(c3cnc(Sc4ccnc(N)c4Cl)c(N)n3)CC2)C1N

1: 64.1%; 2: 68.1%

Dear colleague, could you send me viability, T/C for each of the items below? Thanks.
1. CC(=O)Nc1cccc(-n2c(=O)n(C3CC3)c(=O)c3c(Nc4ccc(I)cc4F)n(C)c(=O)c(C)c32)c1 + COc1cc2nc(C)nc(NC(C)c3cc(N)cc(C(F)(F)F)c3)c2cc1OC1CCOC1
2. Cn1ncnc1[C@H]1c2n[nH]c(=O)c3cc(F)cc(c23)N[C@@H]1c1ccc(F)cc1 + COc1cc2nc(C)nc(NC(C)c3cc(N)cc(C(F)(F)F)c3)c2cc1OC1CCOC1
3. CC(=O)Nc1cccc(-n2c(=O)n(C3CC3)c(=O)c3c(Nc4ccc(I)cc4F)n(C)c(=O)c(C)c32)c1 + C=CC(=O)N1CCN(c2nc(=O)n(-c3c(C)ccnc3C(C)C)c3nc(-c4c(O)cccc4F)c(F)cc23)C(C)C1
4. CC(C)n1nc(-c2ccc3oc(N)nc3c2)c2c(N)ncnc21 + C=CC(=O)N1CCN(c2nc(=O)n(-c3c(C)ccnc3C(C)C)c3nc(-c4c(O)cccc4F)c(F)cc23)C(C)C1
5. CN(C)C/C=C/C(=O)Nc1cc2c(Nc3ccc(F)c(Cl)c3)ncnc2cc1O[C@H]1CCOC1 + CNCc1ccccc1-c1csc(C(C)Nc2nc(C)nc3cc(OC)c(OC)cc23)c1
6. CC(C)n1nc(-c2ccc3oc(N)nc3c2)c2c(N)ncnc21 + CNCc1ccccc1-c1csc(C(C)Nc2nc(C)nc3cc(OC)c(OC)cc23)c1
7. CC(C)n1nc(-c2ccc3oc(N)nc3c2)c2c(N)ncnc21 + COc1cc2nc(C)nc(NC(C)c3cc(N)cc(C(F)(F)F)c3)c2cc1OC1CCOC1
8. Cn1ncnc1[C@H]1c2n[nH]c(=O)c3cc(F)cc(c23)N[C@@H]1c1ccc(F)cc1 + C=CC(=O)N1CCN(c2nc(OCC3CCCN3C)nc3c2CCN(c2cccc4cccc(C)c24)C3)CC1CC#N

1. 55.7%
2. 82.3%
3. 61.5%
4. 40.7%
5. 79.1%
6. 80.3%
7. 71.7%
8. 57.5%

Dear colleague, could you send me viability, T/C for each of the items below? Thanks.
1. CC(C)n1nc(-c2ccc3oc(N)nc3c2)c2c(N)ncnc21 + CC1OCC2(CCN(c3cnc(Sc4ccnc(N)c4Cl)c(N)n3)CC2)C1N
2. CC(=O)Nc1cccc(-n2c(=O)n(C3CC3)c(=O)c3c(Nc4ccc(I)cc4F)n(C)c(=O)c(C)c32)c1 + CNCc1ccccc1-c1csc(C(C)Nc2nc(C)nc3cc(OC)c(OC)cc23)c1
3. CC(=O)Nc1cccc(-n2c(=O)n(C3CC3)c(=O)c3c(Nc4ccc(I)cc4F)n(C)c(=O)c(C)c32)c1 + C=CC(=O)N1CCN(c2nc(OCC3CCCN3C)nc3c2CCN(c2cccc4cccc(C)c24)C3)CC1CC#N
4. CC(=O)Nc1cccc(-n2c(=O)n(C3CC3)c(=O)c3c(Nc4ccc(I)cc4F)n(C)c(=O)c(C)c32)c1 + CC1OCC2(CCN(c3cnc(Sc4ccnc(N)c4Cl)c(N)n3)CC2)C1N
5. Cn1ncnc1[C@H]1c2n[nH]c(=O)c3cc(F)cc(c23)N[C@@H]1c1ccc(F)cc1 + C=CC(=O)N1CCN(c2nc(=O)n(-c3c(C)ccnc3C(C)C)c3nc(-c4c(O)cccc4F)c(F)cc23)C(C)C1
6. CN(C)C/C=C/C(=O)Nc1cc2c(Nc3ccc(F)c(Cl)c3)ncnc2cc1O[C@H]1CCOC1 + C=CC(=O)N1CCN(c2nc(=O)n(-c3c(C)ccnc3C(C)C)c3nc(-c4c(O)cccc4F)c(F)cc23)C(C)C1

1. 72.7%
2. 61.8%
3. 58.4%
4. 50.2%
5. 58.6%
6. 95.8%

----------
Record form. Attribute: viability, T/C. Fill in for each entry.
System: KRAS-mutant PDC tumor spheroid with HUVEC/MSC, viability
Protocol Description: Anticancer human tumor 327498-153-R-J2-PDC cell line growth inhibition [KRAS2];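 also: spheroids exposed to agents for seven days before reading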;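 as to viability, T/C: 100% = DMSO vehicle wells so lower means fewer viable cells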
Run Conditions: second compound 3.16 µM; first compound 3.16 µM; stronger effect = lower value
Text: Multicellular complex tumor spheroid response to RAS pathway inhibitors in combination with a targeted agents in patient-derived cell lines with oncogenic KRAS variants from multiple cancer types A high-throughput screen of multi-cell type tumor spheroids was designed to identify active combinations of targeted small molecules and KRAS pathway inhibitors. […] Compounds. […] If the clinical Cmax for an agent had not been determined, the highest concentration tested was 10 microM. […]

// solved cases for viability, T/C follow
CC1(C)CCC(CN2CCN(c3ccc(C(=O)NS(=O)(=O)c4ccc(NCC5CCOCC5)c([N+](=O)[O-])c4)c(Oc4cnc5[nH]ccc5c4)c3)CC2)=C(c2ccc(Cl)cc2)C1 + COc1cc2nc(C)nc(NC(C)c3cc(N)cc(C(F)(F)F)c3)c2cc1OC1CCOC1 : 28.4%
COc1cc2nccc(Oc3ccc(NC(=O)C4(C(=O)Nc5ccc(F)cc5)CC4)cc3)c2cc1OC + C=CC(=O)N1CCN(c2nc(OCC3CCCN3C)nc3c2CCN(c2cccc4cccc(C)c24)C3)CC1CC#N : 0.13%
O=C(c1cc(Cc2n[nH]c(=O)c3ccccc23)ccc1F)N1CCN(C(=O)C2CC2)CC1 + COc1cc2nc(C)nc(NC(C)c3cc(N)cc(C(F)(F)F)c3)c2cc1OC1CCOC1 : 32.5%
CC1COCCN1c1cc(-c2ccnn2C)c2ccnc(-c3ccn[nH]3)c2n1 (stereo not given) + CC1OCC2(CCN(c3cnc(Sc4ccnc(N)c4Cl)c(N)n3)CC2)C1N : 3.81%

Entry CC(=O)OC12COC1CC(O)C1(C)C(=O)C(O)C3=C(C)C(OC(=O)C(O)C(NC(=O)OC(C)(C)C)c4ccccc4)CC(O)(C(OC(=O)c4ccccc4)C21)C3(C)C (stereo not given) + C=CC(=O)N1CCN(c2nc(=O)n(-c3c(C)ccnc3C(C)C)c3nc(-c4c(O)cccc4F)c(F)cc23)C(C)C1 — recorded viability, T/C = 12.2%

----------
System: KRAS-mutant PDC tumor spheroid with HUVEC/MSC, viability
Protocol Description: Anticancer human tumor 327498-153-R-J2-PDC cell line growth inhibition [KRAS2];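 also: spheroids exposed to agents for seven days before reading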
Run Conditions: curve of first compound; second compound 1 µM
Property: IC50

// solved cases for IC50 follow
CN(C)C/C=C/C(=O)Nc1cc2c(Nc3ccc(F)c(Cl)c3)ncnc2cc1O[C@H]1CCOC1 + C=CC(=O)N1CCN(c2nc(OCC3CCCN3C)nc3c2CCN(c2cccc4cccc(C)c24)C3)CC1CC#N : 2.8 nM
COC(=O)c1ccc2c(C(=Nc3ccc(N(C)C(=O)CN4CCN(C)CC4)cc3)c3ccccc3)c(O)[nH]c2c1 + COc1cc2nc(C)nc(NC(C)c3cc(N)cc(C(F)(F)F)c3)c2cc1OC1CCOC1 : 648 nM

Dear colleague, could you send me IC50 for each of the items below? Thanks.
1. CCNC(=O)CC1N=C(c2ccc(Cl)cc2)c2cc(OC)ccc2-n2c(C)nnc21 (configuration not stated) + CC1OCC2(CCN(c3cnc(Sc4ccnc(N)c4Cl)c(N)n3)CC2)C1N
2. CCN1CCN(Cc2ccc(Nc3ncc(F)c(-c4cc(F)c5nc(C)n(C(C)C)c5c4)n3)nc2)CC1 + CC1OCC2(CCN(c3cnc(Sc4ccnc(N)c4Cl)c(N)n3)CC2)C1N
3. CC(=O)Nc1cccc(-n2c(=O)n(C3CC3)c(=O)c3c(Nc4ccc(I)cc4F)n(C)c(=O)c(C)c32)c1 + CC1OCC2(CCN(c3cnc(Sc4ccnc(N)c4Cl)c(N)n3)CC2)C1N
4. COc1cc2nccc(Oc3ccc(NC(=O)C4(C(=O)Nc5ccc(F)cc5)CC4)cc3)c2cc1OC + C=CC(=O)N1CCN(c2nc(OCC3CCCN3C)nc3c2CCN(c2cccc4cccc(C)c24)C3)CC1CC#N

1: < 31.6 nM; 2: < 3.16 nM; 3: < 0.1 nM; 4: < 31.6 nM

Dear colleague, could you send me IC50 for each of the items below? Thanks.
1. CC(C)n1nc(-c2ccc3oc(N)nc3c2)c2c(N)ncnc21 + C=CC(=O)N1CCN(c2nc(=O)n(-c3c(C)ccnc3C(C)C)c3nc(-c4c(O)cccc4F)c(F)cc23)C(C)C1
2. O=C(c1cc(Cc2n[nH]c(=O)c3ccccc23)ccc1F)N1CCN(C(=O)C2CC2)CC1 + C=CC(=O)N1CCN(c2nc(=O)n(-c3c(C)ccnc3C(C)C)c3nc(-c4c(O)cccc4F)c(F)cc23)C(C)C1
3. CC1COCCN1c1cc(-c2ccnn2C)c2ccnc(-c3ccn[nH]3)c2n1 (configuration not stated) + C=CC(=O)N1CCN(c2nc(OCC3CCCN3C)nc3c2CCN(c2cccc4cccc(C)c24)C3)CC1CC#N
4. CCNC(=O)CC1N=C(c2ccc(Cl)cc2)c2cc(OC)ccc2-n2c(C)nnc21 (configuration not stated) + COc1cc2nc(C)nc(NC(C)c3cc(N)cc(C(F)(F)F)c3)c2cc1OC1CCOC1
5. CC(=O)OC12COC1CC(O)C1(C)C(=O)C(O)C3=C(C)C(OC(=O)C(O)C(NC(=O)OC(C)(C)C)c4ccccc4)CC(O)(C(OC(=O)c4ccccc4)C21)C3(C)C (configuration not stated) + C=CC(=O)N1CCN(c2nc(=O)n(-c3c(C)ccnc3C(C)C)c3nc(-c4c(O)cccc4F)c(F)cc23)C(C)C1
6. CCNC(=O)CC1N=C(c2ccc(Cl)cc2)c2cc(OC)ccc2-n2c(C)nnc21 (configuration not stated) + C=CC(=O)N1CCN(c2nc(=O)n(-c3c(C)ccnc3C(C)C)c3nc(-c4c(O)cccc4F)c(F)cc23)C(C)C1
7. Cn1nccc1Nc1nccc(-c2cc3c(s2)C(C)(C)N(CCN2CCOCC2)C3=O)n1 + CC1OCC2(CCN(c3cnc(Sc4ccnc(N)c4Cl)c(N)n3)CC2)C1N

1. < 0.316 nM
2. 588 nM
3. < 10 nM
4. 352 nM
5. < 10 nM
6. 154 nM
7. < 31.6 nM
